Sourced from patent US20220370440A1

system: EGFR Exon 20 INSNPH Ba/F3 (Homo sapiens, UniProt P00533, DUP771-773, cells depend on it)
Sequence (P00533 with tags, fused parts or gaps DUP771-773): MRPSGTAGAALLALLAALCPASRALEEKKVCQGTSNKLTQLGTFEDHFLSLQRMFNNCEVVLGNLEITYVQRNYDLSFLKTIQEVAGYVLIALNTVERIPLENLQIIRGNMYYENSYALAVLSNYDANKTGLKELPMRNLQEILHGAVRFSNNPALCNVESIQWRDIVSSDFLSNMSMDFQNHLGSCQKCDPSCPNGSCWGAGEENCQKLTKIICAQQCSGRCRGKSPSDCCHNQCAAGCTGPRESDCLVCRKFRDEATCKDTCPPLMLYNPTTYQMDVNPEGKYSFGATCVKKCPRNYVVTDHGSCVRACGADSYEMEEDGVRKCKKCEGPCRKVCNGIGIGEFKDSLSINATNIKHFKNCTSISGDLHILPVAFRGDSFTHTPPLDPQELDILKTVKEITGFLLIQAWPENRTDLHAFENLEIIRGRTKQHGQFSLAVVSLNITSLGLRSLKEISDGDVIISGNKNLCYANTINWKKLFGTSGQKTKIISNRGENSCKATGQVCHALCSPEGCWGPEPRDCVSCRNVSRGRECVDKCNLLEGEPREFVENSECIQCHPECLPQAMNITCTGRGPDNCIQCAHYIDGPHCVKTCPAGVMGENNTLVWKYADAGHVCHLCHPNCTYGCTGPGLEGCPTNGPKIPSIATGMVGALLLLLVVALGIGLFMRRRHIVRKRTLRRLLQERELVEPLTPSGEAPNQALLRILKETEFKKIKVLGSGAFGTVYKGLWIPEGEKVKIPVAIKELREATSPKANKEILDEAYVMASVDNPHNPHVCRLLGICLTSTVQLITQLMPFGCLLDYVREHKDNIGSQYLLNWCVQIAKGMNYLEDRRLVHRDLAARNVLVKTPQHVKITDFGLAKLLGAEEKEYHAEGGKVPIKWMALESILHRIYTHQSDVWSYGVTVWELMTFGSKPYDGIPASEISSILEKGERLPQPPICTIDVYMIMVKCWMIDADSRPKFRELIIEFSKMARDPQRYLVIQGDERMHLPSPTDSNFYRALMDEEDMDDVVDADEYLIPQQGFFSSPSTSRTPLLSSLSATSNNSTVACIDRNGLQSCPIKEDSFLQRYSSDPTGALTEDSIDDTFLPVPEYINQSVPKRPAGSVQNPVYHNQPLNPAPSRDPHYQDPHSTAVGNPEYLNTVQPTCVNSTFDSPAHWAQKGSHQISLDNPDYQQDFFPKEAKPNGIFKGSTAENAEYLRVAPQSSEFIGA
experimentNotes: EGFR Exon 20 INSNPH Ba/F3 CellTiter-Glo
Format: cell-based
statedConditions: CellTiter-Glo, 72 h, read-out: EGFR Exon 20 INSNPH Ba/F3 CTG IC50
Reported GI50 by item:

# count of solved cases: 3
| compound | system | GI50 |
| --- | --- | --- |
| C=CC(=O)Nc1cc(-c2c(-c3ccc(N4CCN(C(C)=O)CC4)nc3)[nH]c3nccc(Cl)c23)ccc1C | EGFR Exon 20 INSNPH Ba/F3 (Homo sapiens, UniProt P00533, DUP771-773, cells depend on it) | 1000 to 10000 nM |
| C=CC(=O)Nc1cc(-c2c(-c3ccc(OCCCN(C)C)cc3)[nH]c3nccc(Cl)c23)ccc1C | EGFR Exon 20 INSNPH Ba/F3 (Homo sapiens, UniProt P00533, DUP771-773, cells depend on it) | 100 to 500 nM |
| C=CC(=O)Nc1cc(-c2c(-c3ccc(N4CCN(C(C)=O)CC4)cc3)[nH]c3nccc(Cl)c23)ccc1C | EGFR Exon 20 INSNPH Ba/F3 (Homo sapiens, UniProt P00533, DUP771-773, cells depend on it) | 100 to 500 nM |

Sure, the documented GI50 for `C=CC(=O)N1CCc2ccc(-c3c(-c4ccc(CN(C)C)cc4)[nH]c4nccc(OCC)c34)cc21` is 100 to 500 nM

Sure, the documented GI50 for `C=CC(=O)Nc1cc(-c2c(-c3cccc(C(=O)NCCCN4CCN(CC)CC4)c3)[nH]c3nccc(Cl)c23)ccc1C` is 1000 to 10000 nM

Sure, the documented GI50 for C=CC(=O)N1CCc2ccc(-c3c(-c4ccc(C5CCN(C)CC5)cc4)[nH]c4nccc(Cl)c34)cc21 [Example 55, 2,2,2-trifluoroacetate] is 500 to 1000 nM

Sure, the documented GI50 for C=CC(=O)Nc1cc(-c2c(-c3ccnc(N4CCN(C)CC4)c3)[nH]c3ncc(C(=O)OC(C)C)cc23)ccc1C [Example 156, 2,2,2-trifluoroacetate] is 100 to 500 nM

Sure, the documented GI50 for `C=CC(=O)Nc1cc(-c2c(-c3cccc(OCCN4CCCC4)c3)[nH]c3nccc(Cl)c23)ccc1C` is 100 to 500 nM

Sure, the documented GI50 for C=CC(=O)NCc1cccc(-c2c(-c3ccc(N4CCN(C)CC4)cc3)[nH]c3ncc(C(=O)OC(C)C)cc23)c1 [Example 203, 2,2,2-trifluoroacetate] is 1000 to 10000 nM

====

system: Her2 Exon 20 INSYVMA Ba/F3 (Homo sapiens, UniProt P04626, DUP772-775, cells depend on it)
Sequence (P04626 with tags, fused parts or gaps DUP772-775): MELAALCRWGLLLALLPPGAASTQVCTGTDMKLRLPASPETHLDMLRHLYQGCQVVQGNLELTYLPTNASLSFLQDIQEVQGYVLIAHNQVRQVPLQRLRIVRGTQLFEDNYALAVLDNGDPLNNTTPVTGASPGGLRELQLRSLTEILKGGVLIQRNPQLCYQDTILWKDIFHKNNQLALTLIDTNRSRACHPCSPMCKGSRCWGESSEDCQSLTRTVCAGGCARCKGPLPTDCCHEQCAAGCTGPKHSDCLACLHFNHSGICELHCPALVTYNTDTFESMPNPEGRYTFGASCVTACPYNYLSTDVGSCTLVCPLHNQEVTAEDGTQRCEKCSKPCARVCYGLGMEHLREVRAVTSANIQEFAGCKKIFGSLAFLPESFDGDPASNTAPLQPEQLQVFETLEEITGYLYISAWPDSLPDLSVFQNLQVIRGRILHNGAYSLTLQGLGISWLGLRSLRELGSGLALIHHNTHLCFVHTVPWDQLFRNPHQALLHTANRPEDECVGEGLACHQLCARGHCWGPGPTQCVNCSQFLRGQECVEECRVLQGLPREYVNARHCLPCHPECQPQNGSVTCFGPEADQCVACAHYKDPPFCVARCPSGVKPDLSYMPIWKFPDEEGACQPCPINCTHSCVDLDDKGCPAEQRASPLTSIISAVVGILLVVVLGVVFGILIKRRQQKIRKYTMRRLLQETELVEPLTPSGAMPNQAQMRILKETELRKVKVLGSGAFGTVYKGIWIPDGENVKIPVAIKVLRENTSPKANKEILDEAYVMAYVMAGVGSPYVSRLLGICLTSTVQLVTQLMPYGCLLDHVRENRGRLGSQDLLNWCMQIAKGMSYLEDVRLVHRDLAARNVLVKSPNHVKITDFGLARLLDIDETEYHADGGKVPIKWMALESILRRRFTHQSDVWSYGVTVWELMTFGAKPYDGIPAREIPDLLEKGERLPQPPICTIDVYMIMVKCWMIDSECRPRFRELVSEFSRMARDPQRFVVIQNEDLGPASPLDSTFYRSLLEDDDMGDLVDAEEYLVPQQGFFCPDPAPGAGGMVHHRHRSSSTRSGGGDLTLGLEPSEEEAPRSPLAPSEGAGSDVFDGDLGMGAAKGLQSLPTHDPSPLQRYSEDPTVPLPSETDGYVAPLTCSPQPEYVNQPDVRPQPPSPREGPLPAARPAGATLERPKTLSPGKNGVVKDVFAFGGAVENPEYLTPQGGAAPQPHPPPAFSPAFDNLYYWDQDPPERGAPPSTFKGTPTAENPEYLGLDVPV
experimentNotes: Her2 Exon 20 INSYVMA Ba/F3 CellTiter-Glo
Type: cell-based
statedConditions: CellTiter-Glo, 72 h, read-out: Her2 Exon 20 INSYVMA Ba/F3 CTG IC50
metricName: GI50

Sure, the documented GI50 for C=CC(=O)N1CCCc2ccc(-c3c(-c4cccc(OCCN(C)C)c4)[nH]c4nccc(Cl)c34)cc21 [Example 88] is 1000 to 10000 nM

Sure, the documented GI50 for C=CC(=O)Nc1cc(-c2c(-c3cccc(N4CCN(C)CC4)c3)[nH]c3nccc(Cl)c23)ccc1C [Example 17] is 100 to 500 nM

Sure, the documented GI50 for C=CC(=O)Nc1cc(-c2c(-c3ccc(N4CCN(S(=O)(=O)CC)CC4)cc3)[nH]c3ncc(C(=O)OC(C)C)cc23)ccc1C [Example 184] is 1000 to 10000 nM

Sure, the documented GI50 for C=CC(=O)Nc1cc(-c2c(-c3ccc(N4CCN(C)CC4)cc3)[nH]c3ncc(C(=O)NCCc4ccncc4)cc23)ccc1C [Example 123] is 1000 to 10000 nM

Sure, the documented GI50 for C=CC(=O)N1CCc2ccc(-c3c(-c4ccc(CN5CCN(C)CC5)cc4)[nH]c4nccc(OCC)c34)cc21 [Example 108] is 100 to 500 nM

====

system: EGFR T790ML858R (Homo sapiens, UniProt P00533, L858R/T790M)
Sequence (P00533 25-1210 T790M/L858R): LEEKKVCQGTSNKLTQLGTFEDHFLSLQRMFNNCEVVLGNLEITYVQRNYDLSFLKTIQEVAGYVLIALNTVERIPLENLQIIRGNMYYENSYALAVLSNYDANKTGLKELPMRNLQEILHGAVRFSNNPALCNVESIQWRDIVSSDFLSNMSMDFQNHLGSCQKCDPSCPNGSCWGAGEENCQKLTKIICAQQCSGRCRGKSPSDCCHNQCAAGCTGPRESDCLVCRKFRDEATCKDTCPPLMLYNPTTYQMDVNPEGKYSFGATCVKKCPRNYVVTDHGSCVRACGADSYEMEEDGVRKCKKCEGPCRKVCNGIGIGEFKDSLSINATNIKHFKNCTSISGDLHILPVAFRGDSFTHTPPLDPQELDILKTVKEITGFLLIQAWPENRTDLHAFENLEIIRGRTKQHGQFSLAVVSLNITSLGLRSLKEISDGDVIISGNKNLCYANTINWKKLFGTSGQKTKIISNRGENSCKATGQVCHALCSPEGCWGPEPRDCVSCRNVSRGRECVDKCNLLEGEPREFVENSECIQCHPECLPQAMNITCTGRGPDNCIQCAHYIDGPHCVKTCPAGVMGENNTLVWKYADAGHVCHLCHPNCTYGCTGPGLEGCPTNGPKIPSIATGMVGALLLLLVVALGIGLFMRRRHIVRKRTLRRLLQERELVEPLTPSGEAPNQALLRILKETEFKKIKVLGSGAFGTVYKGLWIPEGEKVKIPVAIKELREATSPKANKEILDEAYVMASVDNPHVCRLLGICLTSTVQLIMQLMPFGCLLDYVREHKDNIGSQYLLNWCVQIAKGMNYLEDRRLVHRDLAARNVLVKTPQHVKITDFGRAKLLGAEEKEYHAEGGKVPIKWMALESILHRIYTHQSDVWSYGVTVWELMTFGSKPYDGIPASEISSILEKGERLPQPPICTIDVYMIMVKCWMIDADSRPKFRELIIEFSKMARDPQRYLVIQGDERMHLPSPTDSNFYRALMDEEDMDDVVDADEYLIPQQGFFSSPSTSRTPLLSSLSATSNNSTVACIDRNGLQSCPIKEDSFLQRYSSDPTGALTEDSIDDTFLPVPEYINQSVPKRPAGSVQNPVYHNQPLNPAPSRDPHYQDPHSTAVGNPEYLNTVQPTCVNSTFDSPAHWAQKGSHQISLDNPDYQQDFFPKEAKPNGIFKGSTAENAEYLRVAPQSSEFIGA
experimentNotes: EGFR T790ML858R Lance assay
pIC50: −log10 of the molar value.
Reported pIC50 by item:

# count of solved cases: 5
| compound | system | measuredResult |
| --- | --- | --- |
| C=CC(=O)N1CCc2ccc(-c3c(-c4ccc(N5CCN(C)CC5)cc4)[nH]c4nccc(OCC)c34)cc21 [Example 104, 2,2,2-trifluoroacetate] | EGFR T790ML858R (Homo sapiens, UniProt P00533, L858R/T790M) | ≥ 7.00 |
| C=CC(=O)N1CCc2ccc(-c3c(-c4ccc(N5CCN(C)CC5)cc4)[nH]c4nccc(OC(C)C)c34)cc21 [Example 115, 2,2,2-trifluoroacetate] | EGFR T790ML858R (Homo sapiens, UniProt P00533, L858R/T790M) | ≥ 7.00 |
| C=CC(=O)Nc1cc(-c2c(-c3ccc(N(C)CCN(C)C)cc3)[nH]c3ncc(C(=O)OC(C)C)cc23)ccc1C [Example 154, 2,2,2-trifluoroacetate] | EGFR T790ML858R (Homo sapiens, UniProt P00533, L858R/T790M) | ≥ 7.00 |
| C=CC(=O)Nc1cc(-c2c(-c3cccc(CN4CCN(C)CC4)c3)[nH]c3nccc(OC)c23)ccc1C | EGFR T790ML858R (Homo sapiens, UniProt P00533, L858R/T790M) | ≥ 7.00 |
| C=CC(=O)N1CCc2ccc(-c3c(-c4ccc(N5CCN(C(C)=O)CC5)cc4)[nH]c4nccc(Cl)c34)cc21 | EGFR T790ML858R (Homo sapiens, UniProt P00533, L858R/T790M) | ≥ 7.00 |

Sure, the documented pIC50 for C=CC(=O)Nc1cc(-c2c(-c3ccc(N4CCN(C)CC4)cc3)[nH]c3ncc(C(=O)OC)cc23)ccc1C [Example 134, 2,2,2-trifluoroacetate] is ≥ 7.00

====

system: Her2 Exon 20 INSYVMA Ba/F3 (Homo sapiens, UniProt P04626, DUP772-775, cells depend on it)
experimentNotes: Her2 Exon 20 INSYVMA Ba/F3 CellTiter-Glo
Format: cell-based
statedConditions: CellTiter-Glo, 72 h, read-out: Her2 Exon 20 INSYVMA Ba/F3 CTG IC50
metricName: GI50

# count of solved cases: 3
| compound | GI50 |
| --- | --- |
| C=CC(=O)Nc1cc(-c2c(-c3ccc(N4CCN(C(C)=O)CC4)nc3)[nH]c3nccc(Cl)c23)ccc1C [Example 31] | 1000 to 10000 nM |
| C=CC(=O)N1CCCc2ccc(-c3c(-c4ccc(N5CCN(C)CC5)cc4)[nH]c4nccc(Cl)c34)cc21 [Example 86, 2,2,2-trifluoroacetate] | 500 to 1000 nM |
| C=CC(=O)N1CCc2ccc(-c3c(-c4ccc(N5CCN(C)CC5)cc4)[nH]c4nccc(OC)c34)cc21 [Example 110] | 100 to 500 nM |

Sure, the documented GI50 for C=CC(=O)N1CCOc2ccc(-c3c(-c4ccc(CN5CCN(C)CC5)cc4)[nH]c4nccc(Cl)c34)cc21 [Example 100] is 100 to 500 nM

Sure, the documented GI50 for C=CC(=O)Nc1cc(-c2c(-c3cccc(OCCCN(C)C)c3)[nH]c3nccc(Cl)c23)ccc1C [Example 20] is 500 to 1000 nM

Sure, the documented GI50 for C=CC(=O)N1CCc2ccc(-c3c(-c4ccc(N5CCN(C)CC5)cc4)[nH]c4nccc(OCC)c34)cc21 [Example 104, 2,2,2-trifluoroacetate] is 100 to 500 nM

Sure, the documented GI50 for C=CC(=O)Nc1cc(-c2c(-c3ccc(N4CCN(CC)CC4)cc3)[nH]c3nccc(Cl)c23)ccc1C [Example 40] is ≤ 100 nM

Sure, the documented GI50 for C=CC(=O)Nc1cc(-c2c(-c3ccc(N4CCN(C)CC4)cc3)[nH]c3ncc(CC(=O)OC)cc23)ccc1C [Example 195] is 100 to 500 nM

Sure, the documented GI50 for C=CC(=O)Nc1cc(-c2c(-c3ccc(C(=O)N4CCN(C)CC4)cc3)[nH]c3nccc(Cl)c23)ccc1C [Example 9] is 100 to 500 nM

Sure, the documented GI50 for C=CC(=O)Nc1cc(-c2c(-c3ccc(CCN(C)C)cc3)[nH]c3ncc(C(=O)OC(C)C)cc23)ccc1C [Example 161] is 100 to 500 nM

Sure, the documented GI50 for C=CC(=O)N1CCc2ccc(-c3c(-c4ccc(OCCN(C)C)cc4)[nH]c4nccc(Cl)c34)cc21 [Example 67] is 100 to 500 nM

Sure, the documented GI50 for C=CC(=O)Nc1cc(-c2c(-c3ccc(N4CCN(C)CC4)cc3)[nH]c3ncc(CC(=O)OC(C)C)cc23)ccc1C [Example 190, 2,2,2-trifluoroacetate] is 100 to 500 nM

Sure, the documented GI50 for C=CC(=O)Nc1cc(-c2c(-c3ccc(OCCO)cc3)[nH]c3ncc(C(=O)OC(C)C)cc23)ccc1C [Example 178] is 1000 to 10000 nM

Sure, the documented GI50 for C=CC(=O)N1CCc2ccc(-c3c(-c4ccc(N5CCN(C)CC5)cc4)[nH]c4ncc(C(=O)OC(C)C)cc34)cc21 [Example 192] is 100 to 500 nM
